Each record here notes measured ADI.
# experimental.details: ADI of trace elements and other components
Unit mg/kg bw-day implied. Number only.

Record excerpt, results attached:
* Cl.Cl.NCCCCN [PUTRESCINE-2HCl] | 0.018
* O.O.[Na+].[Na+].[O]=[Mo](=[O])([O-])[O-] [SODIUM MOLYBDATE-2H2O] | 1.41
* [Cl-].[Rb+] [RUBIDIUM CHLORIDE] | 0.051
* O.O.O.O.O.O.[Cl-].[Cl-].[Sr+2] [STRONTIUM CHLORIDE HEXAHYDRATE] | 1.87
* Cc1cn([C@H]2C[C@H](O)[C@@H](CO)O2)c(=O)[nH]c1=O [THYMIDINE SYNTHETIC, THYMIDINE] | 83.1

Alright, here's another compound for you.
If you can, please state the reported ADI value of O=C(O)CCCCC1CCSS1 (racemic) .
5.14
